System: RPMI-LR5 cells
Assay: XTT cytotoxicity, RPMI-LR5
Assay type: cell-based
Details: RPMI-LR5 / RPMI 8226
Where a SMILES comes first, the peptide text is derived from it. [ ]: non-standard residue; d: D form. The star is where a group is joined. Dolaproine = CO[C@@H]([C@@H]1CCCN1)[C@@H](C)C(=O)O; Dil = CC[C@H](C)[C@H](NC)[C@@H](CC(=O)O)OC; X1 = C[C@@H](N*)[C@@H](O)c1ccccc1; NMeV = CN[C@H](C(=O)O)C(C)C
Reported IC50 ratio between resistant and non-resistant cells values follow for various molecules

- molecule: "Cc1c(C(=O)OCCCCN)[nH]c2c1C(=O)CC(c1ncco1)C2.Cl.Cl (centres unmarked) [SMS088]"
  experimental.result: 0.885
- molecule: "CCCCCOC(=O)c1[nH]c2c(c1C)C(=O)CC(c1ccco1)C2 (centres unmarked) [SMS001, reference compound]"
  experimental.result: 0.725
- molecule: "CCCCCOC(=O)c1[nH]c2c(c1C)C(O)CC(c1ncco1)C2 (centres unmarked) [SMS108]"
  experimental.result: 0.828
- molecule: "Cc1c(C(=O)OC2CCCC2)[nH]c2c1C(=O)CC(c1ncco1)C2 (centres unmarked) [SMS101]"
  experimental.result: 0.811
- molecule: "Cc1c(C(=O)OCCCCN)oc2c1C(=O)CC(c1ncco1)C2.Cl (centres unmarked) [SMS228]"
  experimental.result: 0.847

Item CC[C@H](C)[C@@H]([C@@H](CC(=O)N1CCC[C@H]1[C@H](OC)[C@@H](C)C(=O)N[C@H](C)[C@@H](O)c1ccccc1)OC)N(C)C(=O)[C@@H](NC(=O)[C@@H](NC)C(C)C)C(C)C [MMAE, reference compound] (H-[NMeV]V[Dil][Dolaproine]-X1) : provide IC50 ratio between resistant and non-resistant cells
>6.000

Item Cc1c(C(=O)OCCCCO)[nH]c2c1C(=O)CC(c1ncco1)C2 (centres unmarked) [SMS096] : provide IC50 ratio between resistant and non-resistant cells
1.031

Item CCCCCOC(=O)c1[nH]c2c(c1C)C(=O)CC(c1ncco1)C2 (centres unmarked) [SMS077] : provide IC50 ratio between resistant and non-resistant cells
0.731

Item Cc1c(C(=O)OCCCCO)oc2c1C(=O)CC(c1ncco1)C2 (centres unmarked) [SMS229] : provide IC50 ratio between resistant and non-resistant cells
1.186

Item CC[C@]1(O)C[C@H]2CN(CCc3c([nH]c4ccccc34)[C@@](C(=O)OC)(c3cc4c(cc3OC)N(C=O)[C@H]3[C@@](O)(C(=O)OC)[C@H](OC(C)=O)[C@]5(CC)C=CCN6CC[C@]43[C@@H]65)C2)C1 [Vincristine, reference compound] : provide IC50 ratio between resistant and non-resistant cells
>2.105

Item CCCCCOC(=O)c1[nH]c2c(c1C)C(=O)CC(c1nccs1)C2 (centres unmarked) [SMS213] : provide IC50 ratio between resistant and non-resistant cells
0.652

====

System: MM1.R cells
Assay: XTT cytotoxicity, MM1.R
Type: cell-based
Details: MM1.R, multiple myeloma, dexamethasone resistant; read-out: IC50
measured.property: IC50 (nM)
Expressed in nM, but write only the number.

Answer briefly: IC50 recorded on MM1.R cells for Cc1c(C(=O)OCCCCN)[nH]c2c1C(=O)CC(c1ncco1)C2.Cl.Cl (centres unmarked)
1020

====

Test system: RPMI-DOX40 cells
Experiment: XTT cytotoxicity, RPMI-DOX40
Format: cell-based
Details: RPMI-DOX40 / RPMI 8226
Reported IC50 ratio between resistant and non-resistant cells values follow for various compounds
# print the numeric value only

- compound: "CCCCCOC(=O)c1[nH]c2c(c1C)C(=O)CC(c1ncco1)C2 (stereo not drawn)"
  experimental.result: 0.962

Item Cc1c(C(=O)OCCCCO)[nH]c2c1C(=O)CC(c1ncco1)C2 (stereo not drawn) : provide IC50 ratio between resistant and non-resistant cells
1.081

Item CCCCCOC(=O)c1[nH]c2c(c1C)C(=O)CN(c1ccccc1)C2 : provide IC50 ratio between resistant and non-resistant cells
2.329

====

System: RPMI 8226 cells
Experiment: XTT cytotoxicity, RPMI 8226
Format: cell-based
Details: Homo sapiens; RPMI 8226, multiple myeloma, non-resistant; read-out: IC50
measured.property: IC50 (nM)
Expressed in nM, but write only the number.

Some molecules with known IC50 results, for comparison:
- molecule: "CCCOC(=O)c1[nH]c2c(c1C)C(=O)CN(c1ncco1)C2"
  measured.property: "IC50"
  experimental.result: 666
- molecule: "CCCCCOC(=O)c1[nH]c2c(c1C)C(=O)CC(c1ncco1)C2 (stereo not drawn)"
  measured.property: "IC50"
  experimental.result: 26

Shift focus to the following entry.
Answer briefly: IC50 recorded on RPMI 8226 cells for CCCOC(=O)c1[nH]c2c(c1C)C(O)CC(c1ncco1)C2 (stereo not drawn)
978

====

System: RPMI-DOX40 cells
Assay: XTT cytotoxicity, RPMI-DOX40
Format: cell-based
Conditions: RPMI-DOX40 / RPMI 8226
Method: The cytotoxic activity of the novel family was evaluated against various tumor cells, including myeloma cells, acute lymphoblastic leukemia cells, acute monocytic leukemia cells, chronic myelogenous leukemia cells, pancreatic cancer cells, breast cancer cells, uterine sarcoma cells, cervix adenocarcinoma cells, ovary cancer cells, melanoma cells, osteosarcoma cells, prostate cancer cells, lung cancer cells, neuroblastoma cells and colorectal adenocarcinoma cells by XTT assay.
Reported IC50 ratio between resistant and non-resistant cells values follow for various compounds
# print the numeric value only

- compound: "CCCCCOC(=O)c1[nH]c2c(c1C)C(=O)CC(c1ccco1)C2 (centres unmarked) [SMS001, reference compound]"
  experimental.result: 0.850

Answer briefly: IC50 ratio between resistant and non-resistant cells recorded on RPMI-DOX40 cells for Cc1c(C(=O)OCCCCN)[nH]c2c1C(=O)CC(c1ncco1)C2.Cl.Cl (centres unmarked)
0.839

Answer briefly: IC50 ratio between resistant and non-resistant cells recorded on RPMI-DOX40 cells for CCCCCOC(=O)c1[nH]c2c(c1C)C(=O)CC(c1nccs1)C2 (centres unmarked)
0.739

Answer briefly: IC50 ratio between resistant and non-resistant cells recorded on RPMI-DOX40 cells for CCCOC(=O)c1[nH]c2c(c1C)C(=O)CN(c1ncco1)C2
1.598

Answer briefly: IC50 ratio between resistant and non-resistant cells recorded on RPMI-DOX40 cells for Cc1c(C(=O)OCCCCN)oc2c1C(=O)CC(c1ncco1)C2.Cl (centres unmarked)
0.853

====

Reported IC50 ratio between resistant and non-resistant cells values follow for various compounds
Tested on: RPMI-DOX40 cells
Experiment: XTT cytotoxicity, RPMI-DOX40
Type: cell-based
Conditions: RPMI-DOX40 / RPMI 8226
# print the numeric value only

- compound: "CCCCCOC(=O)c1[nH]c2c(c1C)C(O)CC(c1ncco1)C2 (stereo not drawn)"
  tested.on: "RPMI-DOX40 cells"
  experimental.result: 0.965

Shift focus to the following entry.
Answer briefly: IC50 ratio between resistant and non-resistant cells recorded on RPMI-DOX40 cells for Cc1c(C(=O)OC2CCCC2)[nH]c2c1C(=O)CC(c1ncco1)C2 (stereo not drawn)
0.856

====

Reported pIC50 values follow for various compounds
System: NALM6 cells
Assay: XTT cytotoxicity, NALM6
Type: cell-based
Conditions: NALM6, acute lymphoblastic leukemia, non-resistant; read-out: IC50
Where a SMILES comes first, the peptide text is derived from it. [ ]: non-standard residue; d: D form. The star is where a group is joined. Dolaproine = CO[C@@H]([C@@H]1CCCN1)[C@@H](C)C(=O)O; Dil = CC[C@H](C)[C@H](NC)[C@@H](CC(=O)O)OC; X1 = C[C@@H](N*)[C@@H](O)c1ccccc1; NMeV = CN[C@H](C(=O)O)C(C)C
# pIC50: negative log10 of molar concentration; output just the value

- compound: "Cc1c(C(=O)OCCCCN)[nH]c2c1C(=O)CC(c1ncco1)C2.Cl.Cl (centres unmarked)"
  tested.on: "NALM6 cells"
  pIC50: 7.25

Shift focus to the following entry.
Answer briefly: pIC50 recorded on NALM6 cells for CC[C@H](C)[C@@H]([C@@H](CC(=O)N1CCC[C@H]1[C@H](OC)[C@@H](C)C(=O)N[C@H](C)[C@@H](O)c1ccccc1)OC)N(C)C(=O)[C@@H](NC(=O)[C@@H](NC)C(C)C)C(C)C [MMAE, reference compound] (H-[NMeV]V[Dil][Dolaproine]-X1)
9.52

====

System: NALM6 cells
Assay: XTT cytotoxicity, NALM6
Format: cell-based
Settings: Homo sapiens, NALM-6
measured.property: IC50 (nM)
Expressed in nM, but write only the number.

Item Cc1c(C(=O)OCCCCN)oc2c1C(=O)CC(c1ncco1)C2.Cl (stereo not shown) : provide IC50
350

====

System: NALM6 cells
Assay: XTT cytotoxicity, NALM6
Format: cell-based
Details: Homo sapiens, NALM-6; NALM6, acute lymphoblastic leukemia, non-resistant; read-out: IC50
measured.property: pIC50
# pIC50: negative log10 of molar concentration; output just the value

- molecule: "CCCOC(=O)c1[nH]c2c(c1C)C(O)CC(c1ncco1)C2 (stereo not drawn) [SMS291]"
  experimental.result: 6.29
- molecule: "CC(=O)O[C@H]1C(=O)[C@@]2(C)[C@H]([C@H](OC(=O)c3ccccc3)[C@]3(O)C[C@H](OC(=O)[C@H](O)[C@@H](NC(=O)c4ccccc4)c4ccccc4)C(C)=C1C3(C)C)[C@]1(OC(C)=O)CO[C@@H]1C[C@@H]2O [Paqlitaxel, paclitaxel]"
  experimental.result: 8.08

Item Cc1c(C(=O)OCCCCO)[nH]c2c1C(=O)CC(c1ncco1)C2 (stereo not drawn) [SMS096] : provide pIC50
6.20
